experiment: self-splicing fitness, log relative to wild type (ln ratio); higher = more splicing; Tetrahymena group I intron in knt gene, E. coli kanamycin selection, DiMSum; sequences stand for … in CUCUCU…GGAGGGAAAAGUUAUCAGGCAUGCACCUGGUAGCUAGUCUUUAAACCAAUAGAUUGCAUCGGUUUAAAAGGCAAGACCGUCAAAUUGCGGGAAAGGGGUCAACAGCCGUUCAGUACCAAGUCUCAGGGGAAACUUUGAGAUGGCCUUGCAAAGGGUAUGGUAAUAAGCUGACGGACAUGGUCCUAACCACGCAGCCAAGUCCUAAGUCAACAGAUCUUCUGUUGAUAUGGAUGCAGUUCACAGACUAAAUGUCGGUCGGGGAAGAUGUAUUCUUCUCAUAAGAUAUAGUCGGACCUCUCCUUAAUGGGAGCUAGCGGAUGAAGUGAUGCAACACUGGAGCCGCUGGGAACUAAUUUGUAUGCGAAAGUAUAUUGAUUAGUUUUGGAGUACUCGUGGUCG;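 also: selection with 25 µg/mL kanamycin versus none on LB agar overnight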
assay context: 30 °C
Reported self-splicing fitness (ln) values for a set of sequences
Enter the number alone.

GAUUAGCAAUAUUACGAAGA: -1.25
ACUAAGCAAUAUUACGUGCA: -1.37
AAUCAGCAAUAUUACGAUGC: -0.408
UUAUAGCAAUAUUACGACUA: -0.12
AUCUAGCAAUAUUACGGAAG: -1.99

Please give the measured self-splicing fitness (ln) for this sequence: GGAGAGCAAUAUUACGCGUG
-3.84

Item under review: AGCUAGCAAUAUUACGGAGU . Reported self-splicing fitness (ln)?
-2.94

What value of self-splicing fitness (ln) has been reported for the following sequence? CUUUAGCAAUAUUACGGCGU
-3.31

Param item = AUUCAGCAAUAUUACGCGCG ; retrieve measured self-splicing fitness (ln).
-0.817

Reported self-splicing fitness (ln) for CCCUAGCAAUAUUACGGCCC : what is it?
-3.9

Given CCGAAGCAAUAUUACGUGAG , state its recorded self-splicing fitness (ln).
-1
